- Tested on: SK-OV-3
- measurement.description: NCI tumour cell line growth inhibition, 48 h
The source made the active and inactive calls. Rule as the data show it: active = GI50 up to about 1.1 µM and inactive = higher.
Labels: YES for active, NO for inactive

> print(dat)
                                    molecule  assay.system  answer.label
 1  COC(CNC(=O)C(C)NC(=O)CCc1ccccc1)OC (stereo unspecified)       SK-OV-3            NO
 2  NCCCC[C@H](N)C(=O)Nc1ccc(-c2nc3ccccc3s2)cc1       SK-OV-3            NO
 3  CC(C)Nc1[nH]c(C(=O)c2ccccc2)c(N)c1C(=S)Nc1ccccc1       SK-OV-3            NO
 4  COc1ccc(/C=C2\SC(c3ccc(OC)cc3)N(NC(=O)Cc3ccccc3)C2=O)cc1 (stereo unspecified)       SK-OV-3            NO
 5   O=c1c2cc(Cl)ccc2n2nnc3ccc(NCCNCCO)c1c32       SK-OV-3            NO
 6   N#CCCN(CCC#N)c1ccc(/C=N\c2ccc(F)cc2)cc1       SK-OV-3            NO
 7  CN(C)/C=C/c1c2c(nc3ccccc13)C(=O)c1ccccc1C2=O       SK-OV-3            NO
 8       COc1ccc2nc3ccccc3c(NCCN(C)CCCl)c2c1       SK-OV-3           YES
 9               CC1(C)C(=O)C(=Cc2ccco2)C1=O       SK-OV-3            NO
10                 S=C(Nc1ccccn1)Nc1ccccc1Cl       SK-OV-3            NO
11  c1ccc2c3nc(C4CCCC4)nc-3c(NC3CCCC3)[nH]c2c1       SK-OV-3            NO
